Source listed as patent US20050032873A1.

Counter-ions that a name gives are not always drawn.
Reported melting point values for a set of compounds

(Q) Look up and state reported melting point for CCN(CCCc1c[nH]c2ccc(F)cc12)C1COc2cccc(OC)c2C1 (stereo not drawn) (as salt: hydrochloride)
(A) 91.2 °C (dec.)

(Q) Look up and state reported melting point for CCCN(CCCc1c[nH]c2ccc(F)cc12)[C@H]1CCc2cccc(OC)c2C1 (as salt: hydrochloride) [Compound 47a]
(A) 107 °C (dec.)

---

molecular target: cloned human 5-HT1A receptors (Homo sapiens); test: 35S-GTPγS binding assay, 5-HT1A function; conditions: agonist potency
Reported EC50 values for a set of molecules
Quick note: give the figure in µM, leave out the unit.

[
  {
    "molecule": "CCCN(CCCc1c[nH]c2c(Cl)cccc12)C1COc2c(F)ccc(C(N)=O)c2C1 (stereo not shown)",
    "measurement kind": "EC50",
    "readout number": 0.0872
  }
]

(Q) Look up and state reported EC50 for NC(=O)c1cccc2c1C[C@@H](NCCCc1c[nH]c3ccc(F)cc13)CO2 [Compound 133b]
(A) 1

(Q) Look up and state reported EC50 for CCCN(CCCc1c[nH]c2ccc(F)cc12)C1COc2c(C(N)=O)ccc(F)c2C1 (stereo not shown)
(A) 1.1

(Q) Look up and state reported EC50 for COC(=O)c1ccc(F)c2c1C[C@@H](NCCCCc1c[nH]c3ccc(F)cc13)CO2 [Compound 57b]
(A) 0.641

---

Counter-ions that a name gives are not always drawn.
measurement kind: melting point

Worked cases, melting point given:
[
  {
    "molecule": "COc1cccc2c(CCCNC3COc4c(F)ccc(C(N)=O)c4C3)coc12 (stereo not shown) [Compound 161]",
    "result": "163 to 166 °C"
  },
  {
    "molecule": "CCCN(CCC(O)c1csc2ccc(F)cc12)C1COc2c(F)ccc(C(N)=O)c2C1 (stereo not shown) (as salt: hydrochloride) [Compound 17]",
    "result": "117 °C (dec.)"
  },
  {
    "molecule": "COc1cccc2c1CC(N(CCCc1c[nH]c3ccc(F)cc13)CC1CC1)CO2 (stereo not shown) (as salt: hydrochloride) [Compound 37]",
    "result": "114 °C (dec.)"
  }
]

(Q) Look up and state reported melting point for NC(=O)c1ccc(F)c2c1CC(N(CCc1c[nH]c3ccc(F)cc13)CC1CC1)CO2 (stereo not shown) (as salt: hydrochloride) [Compound 78]
(A) 132 °C (dec.)

---

Reported Ki values for a set of molecules
molecular target: 5-HT1A receptor (Homo sapiens, UniProt P08908); test: 5-HT1A receptor affinity: displacement of [3H] 8-OH-DPAT; assay type: binding; design: expressed in transfected cells; conditions: displacement of [3H] 8-OH-DPAT; CHO cells stably transfected with human 5-HT1A receptors; read-out: 5-HT1A Receptor Affinity Ki
Sequence (P08908 whole entry): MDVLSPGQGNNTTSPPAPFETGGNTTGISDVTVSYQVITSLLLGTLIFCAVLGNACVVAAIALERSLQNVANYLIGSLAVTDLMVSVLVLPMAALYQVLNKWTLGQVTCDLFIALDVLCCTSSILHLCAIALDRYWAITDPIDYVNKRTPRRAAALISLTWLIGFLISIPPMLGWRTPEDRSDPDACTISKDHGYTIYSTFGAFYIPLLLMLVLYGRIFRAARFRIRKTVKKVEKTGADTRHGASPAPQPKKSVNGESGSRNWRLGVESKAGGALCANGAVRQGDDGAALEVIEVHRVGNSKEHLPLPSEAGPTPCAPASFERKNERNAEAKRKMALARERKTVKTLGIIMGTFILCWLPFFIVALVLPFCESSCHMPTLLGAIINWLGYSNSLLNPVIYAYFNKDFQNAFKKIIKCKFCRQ
Quick note: give the figure in nM, leave out the unit.

[
  {
    "molecule": "COc1cccc2c(CCCCN(CC3CC3)C3COc4c(F)ccc(C(N)=O)c4C3)coc12 (stereo not shown)",
    "target or test system": "5-HT1A receptor (Homo sapiens, UniProt P08908)",
    "measurement kind": "Ki",
    "readout number": 0.72
  },
  {
    "molecule": "NC(=O)c1ccc(F)c2c1CC(N(CCCc1c[nH]c3cc(F)ccc13)C1CCC1)CO2 (stereo not shown)",
    "target or test system": "5-HT1A receptor (Homo sapiens, UniProt P08908)",
    "measurement kind": "Ki",
    "readout number": 5.02
  },
  {
    "molecule": "CCCN(C(C)CCc1c[nH]c2ccc(F)cc12)C1COc2c(F)ccc(C(N)=O)c2C1 (single isomer, unassigned) [Compound 12b]",
    "target or test system": "5-HT1A receptor (Homo sapiens, UniProt P08908)",
    "measurement kind": "Ki",
    "readout number": 19.4
  },
  {
    "molecule": "CNC(=O)c1ccc(F)c2c1C[C@H](N(CCCCc1c[nH]c3ccc(F)cc13)C1CCC1)CO2 [Compound 145a]",
    "target or test system": "5-HT1A receptor (Homo sapiens, UniProt P08908)",
    "measurement kind": "Ki",
    "readout number": 288
  },
  {
    "molecule": "CCCNC(=O)c1cccc2c1CC(N(CCCc1c[nH]c3c(F)cc(F)cc13)C1CCC1)CO2 (stereo not shown)",
    "target or test system": "5-HT1A receptor (Homo sapiens, UniProt P08908)",
    "measurement kind": "Ki",
    "readout number": 39.2
  },
  {
    "molecule": "CNC(=O)c1ccc(F)c2c1CC(NCCCc1c[nH]c3ccc(F)cc13)CO2 (stereo not shown)",
    "target or test system": "5-HT1A receptor (Homo sapiens, UniProt P08908)",
    "measurement kind": "Ki",
    "readout number": 54.6
  }
]

Next:
(Q) Look up and state reported Ki for CCN(CCCc1c[nH]c2ccc(F)cc12)C1COc2c(F)ccc(C(N)=O)c2C1 (single isomer, unassigned; (-)) [Compound 3a]
(A) 35.1

---

Counter-ions that a name gives are not always drawn.
measurement kind: melting point

[
  {
    "compound": "COC(=O)c1ccc(F)c2c1CC(NCCCCc1c[nH]c3ccc(F)cc13)CO2 (stereo not drawn) (as salt: hydrochloride)",
    "measurement kind": "melting point",
    "result": "228 °C (dec.)"
  },
  {
    "compound": "COC(=O)c1ccc(F)c2c1CC(N(CCCc1c[nH]c3ccc(F)cc13)C1CCC1)CO2 (stereo not drawn) (as salt: hydrochloride)",
    "measurement kind": "melting point",
    "result": "110 °C (dec.)"
  }
]

(Q) Look up and state reported melting point for O=C(O)c1ccc(F)c2c1CC(N(CCCc1c[nH]c3ccc(F)cc13)C1CCC1)CO2 (stereo not drawn) (as salt: hydrochloride)
(A) 140 °C (dec.)

(Q) Look up and state reported melting point for CCCN(CCCc1c[nH]c2ccc(F)cc12)C1COc2cccc(OC)c2C1 (stereo not drawn) (as salt: hydrochloride)
(A) 117 to 120 °C

(Q) Look up and state reported melting point for NC(=O)c1ccc(F)c2c1CC(N(CCCc1c[nH]c3ccc(F)cc13)C1CCC1)CO2 (single isomer, unassigned; (+)) (as salt: hydrochloride)
(A) 129 °C (dec.)

(Q) Look up and state reported melting point for CNC(=O)c1ccc(F)c2c1C[C@@H](N(CCCCc1c[nH]c3ccc(F)cc13)C1CCC1)CO2 (as salt: hydrochloride) [Compound 145b]
(A) 125 °C (dec.)

---

Reported 5-HT1A Function GTPγS (Imax) values for a set of compounds
target: cloned human 5-HT1A receptors (Homo sapiens, UniProt P08908); construct: expressed in transfected cells; experiment: 35S-GTPγS binding assay, 5-HT1A function; assay type: biochemical; details: maximum inhibitory effect, in brackets after IC50
Quick note: give the figure in %, leave out the unit.

Worked cases, 5-HT1A Function GTPγS (Imax) given:
[
  {
    "compound": "NC(=O)c1ccc(F)c2c1C[C@@H](N(CC1CC1)CC1CCc3[nH]c4ccc(F)cc4c3C1)CO2 (single isomer, unassigned; (+)) [Compound 178b]",
    "5-HT1A Function GTPγS (Imax) / %": 99
  },
  {
    "compound": "CCCN(C(C)CCc1c[nH]c2ccc(F)cc12)C1COc2c(F)ccc(C(N)=O)c2C1 (single isomer, unassigned) [Compound 12d]",
    "5-HT1A Function GTPγS (Imax) / %": 13
  },
  {
    "compound": "CCCN(C(C)CCc1c[nH]c2ccc(C#N)cc12)C1COc2c(F)ccc(C(N)=O)c2C1 (single isomer, unassigned) [Compound 13c]",
    "5-HT1A Function GTPγS (Imax) / %": 92
  },
  {
    "compound": "NC(=O)c1ccc(F)c2c1C[C@@H](NCC1CCc3[nH]c4ccc(F)cc4c3C1)CO2 (single isomer, unassigned; (+)) [Compound 175b]",
    "5-HT1A Function GTPγS (Imax) / %": 55
  },
  {
    "compound": "CCCN(CC1CCc2[nH]c3ccc(F)cc3c2C1)[C@H]1COc2c(F)ccc(C(N)=O)c2C1 (single isomer, unassigned; (+)) [Compound 177b]",
    "5-HT1A Function GTPγS (Imax) / %": 74
  }
]

(Q) Look up and state reported 5-HT1A Function GTPγS (Imax) for NC(=O)c1ccc(F)c2c1CC(N(CC1CCc3[nH]c4ccc(F)cc4c3C1)C1CCC1)CO2 (single isomer, unassigned; (-)) [Compound 174a]
(A) 50

(Q) Look up and state reported 5-HT1A Function GTPγS (Imax) for CCCN(C(C)CCc1c[nH]c2ccc(F)cc12)C1COc2c(F)ccc(C(N)=O)c2C1 (single isomer, unassigned) [Compound 12a]
(A) 96

(Q) Look up and state reported 5-HT1A Function GTPγS (Imax) for CCCN(C(C)CCCc1c[nH]c2ccc(F)cc12)C1COc2c(F)ccc(C(N)=O)c2C1 (single isomer, unassigned; (+)) [Compound 14a]
(A) 59

(Q) Look up and state reported 5-HT1A Function GTPγS (Imax) for CCN(CC1CCc2[nH]c3ccc(F)cc3c2C1)[C@H]1COc2c(F)ccc(C(N)=O)c2C1 (single isomer, unassigned; (+)) [Compound 176b]
(A) 88

(Q) Look up and state reported 5-HT1A Function GTPγS (Imax) for NC(=O)c1ccc(F)c2c1CC(N(CCCc1c[nH]c3ccc(F)cc13)CC1CC1)CO2 (single isomer, unassigned; (+))
(A) 82
